System: NCI-H1048 cells
Assay: MTT proliferation assay, NCI-H1048;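 note: Dose-response in 96-well plates over 8 or 10 concentration points, with exposure spanning 3-4 cell doublings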
Format: cell-based
Details: 5 days compound exposure, 1:3 serial dilution starting at 10 μM
*1 amine or outer side, *2 acyl side, *3 side chain or, on linkers, in order; H or OH if unused. Where a SMILES comes first, the peptide text is derived from it. Bridges are numbered along the chain shown (N, C = ends). [ ]: non-standard residue; d: D form. The star is where a group is joined. X40 = CN1CCN(Cc2ccc(-c3ccc(Cl)cc3C[C@@H](C(=O)[*:2])N(C)[*:1])cc2)CC1; NMehhhLys(Me) = CN([C@@H](CCCCCCCN(C)[*:3])C(=O)[*:2])[*:1]; NMe(hhhLys) = CN([C@@H](CCCCCCCN[*:3])C(=O)[*:2])[*:1]; cBuCO(3,3-F2-1-CF3) = O=C(C1(C(F)(F)F)CC(F)(F)C1)*; NMePhe(2,5-Cl2) = CN[C@@H](Cc1cc(Cl)ccc1Cl)C(=O)O; Pro(trans-4-F) = O=C(O)[C@@H]1C[C@@H](F)CN1; Gly(cPr) = N[C@H](C(=O)O)C1CC1
Collected GI50 values appear next to each entry.
Response body: numeric value in nM, unit text excluded.

CC(C)C[C@@H]1NC(=O)[C@@H](N(C)C(=O)[C@@H](NC(=O)[C@@H]2C[C@@H](F)CN2C(=O)C2(C(F)(F)F)CC(F)(F)C2)C2CC2)CCCCCCCNC(=O)[C@H](Cc2cc(Cl)ccc2Cl)N(C)C1=O [Example 7] ({cBuCO(3,3-F2-1-CF3)}-[Pro(trans-4-F)][Gly(cPr)][NMe(hhhLys)]L[NMePhe(2,5-Cl2)]; lactam 3-C) | 20
CC(C)C[C@@H]1NC(=O)[C@@H](N(C)C(=O)[C@@H](NC(=O)[C@@H]2C[C@@H](F)CN2C(=O)C2(C(F)(F)F)CC(F)(F)C2)C2CC2)CCCCCCCN(C)C(=O)[C@H](Cc2cc(Cl)ccc2-c2ccc(CN3CCN(C)CC3)cc2)N(C)C1=O [Example 360] ({cBuCO(3,3-F2-1-CF3)}-[Pro(trans-4-F)][Gly(cPr)][NMehhhLys(Me)]L[X40]; lactam 3-C) | 10

With those in mind, consider the next compound.
Ask: Report GI50 for CC(=O)N1[C@H]2CC[C@@H]1C=C(c1ccc(F)cc1C[C@H]1C(=O)N(C)CCCCCCC[C@H](N(C)C(=O)[C@@H](NC(=O)[C@@H]3C[C@@H](F)CN3C(=O)C3(C(F)(F)F)CC(F)(F)C3)C3CC3)C(=O)N[C@@H](CC(C)C)C(=O)N1C)C2 [Example 58] please.
Reply: 10
